Reference for the values: ChEMBL document CHEMBL1140037

runDescription: Half life in Sprague-Dawley rat at 4 umol/mL/kg, iv
Assay type: ADME, organism-based
measurementConditions: in vivo
valueType: half-life (h)
Unit h implied. Number only.

Some entries whose results are on file:
CCCN1C(=O)NC2(CCN(Cc3cc4cnc(C#N)nc4n3CC(C)(C)C)CC2)C1=O 1.9
CN1C(=O)NC2(CCN(Cc3cc4cnc(C#N)nc4n3CC(C)(C)C)CC2)C1=O 1.4
CC(C)(C)Cn1c(CN2C(=O)NC3(CCNCC3)C2=O)cc2cnc(C#N)nc21 3.3

Return the recorded half-life value; entry: `CC(C)(C)Cn1c(CN2CCC3(CC2)NC(=O)NC3=O)cc2cnc(C#N)nc21`
1.6

Return the recorded half-life value; entry: `CCCN1CCC2(CC1)NC(=O)N(Cc1cc3cnc(C#N)nc3n1CC(C)(C)C)C2=O`
2.8

* * *

runDescription: Volume of distribution at steady state in Sprague-Dawley rat at 4 umol/mL/kg, iv
Type: ADME, organism-based
measurementConditions: in vivo, read-out: Vdss
valueType: Vd (L/kg)
Unit L/kg implied. Number only.

Some entries whose results are on file:
CC(C)(C)Cn1c(CN2C(=O)NC3(CCNCC3)C2=O)cc2cnc(C#N)nc21 59.2
CC(C)(C)Cn1c(CN2CCC3(CC2)NC(=O)NC3=O)cc2cnc(C#N)nc21 5.9
CCCN1C(=O)NC2(CCN(Cc3cc4cnc(C#N)nc4n3CC(C)(C)C)CC2)C1=O 6.7

Return the recorded Vd value; entry: `CCCN1CCC2(CC1)NC(=O)N(Cc1cc3cnc(C#N)nc3n1CC(C)(C)C)C2=O`
17.3
